Can you tell me Cytotoxicity IC10 for the items I'm about to list?
Tested on: CHO-K1 OATP1C1 cells
Conditions: concentration that inhibits cell viability by 10%; CHO-K1 OATP1C1 cells, 30 min exposure

INPUT: // Cytotoxicity IC10 lookup, key: O=S(=O)([O-])c1cc(S(=O)(=O)O)ccc1C1=c2cc3c4c(c2Oc2c1cc1c5c2CCCN5CCC1)CCC[N+]=4CCC3 [Sulforhodamine 101, reference compound]
OUTPUT: > 10 µM

INPUT: And the next one, O=C(O)CSc1nnc(Br)n1-c1ccc(C2CC2)c2ccccc12 [Lesinurad, reference compound] ?
OUTPUT: > 100 µM

INPUT: And for O=C1OC(c2ccc(O)c(S(=O)(=O)O)c2)(c2ccc(O)c(S(=O)(=O)O)c2)c2c(Br)c(Br)c(Br)c(Br)c21 [Bromosulfophthalein, reference compound] ?
OUTPUT: > 100 µM

INPUT: Now consider Oc1ccc(C(c2ccc(O)cc2)(C(F)(F)F)C(F)(F)F)cc1 and answer again.
OUTPUT: 0.909 µM

INPUT: Follow-up entry: CCCN(CCC)S(=O)(=O)c1ccc(C(=O)O)cc1 [Probenecid, reference compound]
OUTPUT: > 100 µM

I need Cytotoxicity IC10 for every entry listed below, if you could help.
1. Oc1ccc(C2(c3ccc(O)cc3)CCCCC2)cc1
2. O=S(=O)(O)C(F)(F)C(F)(F)C(F)(F)C(F)(F)C(F)(F)C(F)(F)C(F)(F)C(F)(F)F

OUTPUT:
1: > 100 µM; 2: > 100 µM

Lab note: each molecule below needs its Cytotoxicity IC10 filled in.
1. O=C(O)C(F)(F)C(F)(F)C(F)(F)C(F)(F)C(F)(F)C(F)(F)C(F)(F)F
2. CO[C@H]1/C=C/O[C@@]2(C)Oc3c(C)c(O)c4c(O)c(c(/C=N/N5CCN(C)CC5)c(O)c4c3C2=O)NC(=O)/C(C)=C\C=C\[C@H](C)[C@H](O)[C@@H](C)[C@@H](O)[C@@H](C)[C@H](OC(C)=O)[C@@H]1C [Rifampicin, reference compound]
3. Oc1c(Cl)c(Cl)c(Cl)c(Cl)c1Cl
4. Oc1cc(Cl)ccc1Oc1ccc(Cl)cc1Cl
5. O=c1c(O)c(-c2ccc(O)c(O)c2)oc2cc(O)cc(O)c12
6. CC1(C)C(/C=C/C=C/C=C/C=C2\N(CCCCS(=O)(=O)O)c3ccc4ccccc4c3C2(C)C)=[N+](CCCCS(=O)(=O)[O-])c2ccc3ccccc3c21 [Indocyanine green, reference compound]

OUTPUT:
1: > 100 µM; 2: > 100 µM; 3: > 18.5 µM; 4: 0.378 µM; 5: > 100 µM; 6: > 100 µM

INPUT: Quick one: Cytotoxicity IC10 of COc1cc([C@@H]2Oc3c(O)cc([C@H]4Oc5cc(O)cc(O)c5C(=O)[C@@H]4O)cc3[C@H]2CO)ccc1O [Silychristin, reference compound] ?
OUTPUT: > 10 µM
